- SYSTEM_UNDER_TEST: T1, PF4/heparin complex (human PF4 complexed with heparin) (human, UniProt P02776 32-101)
- T1 construct: Multimeric complex of PF4 with heparin (not a protein); In the EIAs: PF4 captured on biotinylated heparin on streptavidin plates; In the SRA: platelets with 0.2 U/mL heparin; also called PF4 and heparin complexes
- T1 sequence: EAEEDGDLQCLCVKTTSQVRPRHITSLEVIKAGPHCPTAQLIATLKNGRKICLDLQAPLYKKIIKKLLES
- TEST_METHOD_NOTES: BLI (Octet), biotinylated PF4/heparin on streptavidin sensors, scFv 1 µg/mL, 1:1 model
pKd: −log10 of the molar value.
READOUT_TYPE: pKd

binder="Mutant C scFv, scFv(S50N, Y53H) (scFv, VL-linker-VH; histidine-tagged, from E. coli BL21; also called Mut C; not shown: histidine tag from the pADL-22c vector) scFv: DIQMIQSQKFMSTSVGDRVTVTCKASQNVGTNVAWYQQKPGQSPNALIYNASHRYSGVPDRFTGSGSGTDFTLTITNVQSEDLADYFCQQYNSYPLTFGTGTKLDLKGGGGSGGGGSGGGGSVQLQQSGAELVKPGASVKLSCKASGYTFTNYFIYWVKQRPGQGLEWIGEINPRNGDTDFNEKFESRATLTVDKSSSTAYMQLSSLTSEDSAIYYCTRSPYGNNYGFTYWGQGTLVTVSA" assay_result=8.42
binder="Mutant B scFv, scFv(R18K, N152K, D180N) (scFv, VL-linker-VH; histidine-tagged, from E. coli BL21; also called Mut B; not shown: histidine tag from the pADL-22c vector) scFv: DIQMIQSQKFMSTSVGDKVTVTCKASQNVGTNVAWYQQKPGQSPNALIYSASYRYSGVPDRFTGSGSGTDFTLTITNVQSEDLADYFCQQYNSYPLTFGTGTKLDLKGGGGSGGGGSGGGGSVQLQQSGAELVKPGASVKLSCKASGYTFTKYFIYWVKQRPGQGLEWIGEINPRNGDTNFNEKFESRATLTVDKSSSTAYMQLSSLTSEDSAIYYCTRSPYGNNYGFTYWGQGTLVTVSA" assay_result=8.87
binder="Mutant F scFv, scFv(E183V, E186K, G223R) (scFv, VL-linker-VH; histidine-tagged, from E. coli BL21; also called Mut F; not shown: histidine tag from the pADL-22c vector) scFv: DIQMIQSQKFMSTSVGDRVTVTCKASQNVGTNVAWYQQKPGQSPNALIYSASYRYSGVPDRFTGSGSGTDFTLTITNVQSEDLADYFCQQYNSYPLTFGTGTKLDLKGGGGSGGGGSGGGGSVQLQQSGAELVKPGASVKLSCKASGYTFTNYFIYWVKQRPGQGLEWIGEINPRNGDTDFNVKFKSRATLTVDKSSSTAYMQLSSLTSEDSAIYYCTRSPYRNNYGFTYWGQGTLVTVSA" assay_result=9.53
binder="Wildtype scFv (KKO-derived single chain variable fragment) (scFv, VL-(G4S)3 linker-VH; expressed in E. coli BL21 from pADL-22c, purified on Ni-NTA as histidine-tagged scFv, about 28 kDa; also called WT; KKO-scFv; not shown: histidine tag from the pADL-22c vector) scFv: DIQMIQSQKFMSTSVGDRVTVTCKASQNVGTNVAWYQQKPGQSPNALIYSASYRYSGVPDRFTGSGSGTDFTLTITNVQSEDLADYFCQQYNSYPLTFGTGTKLDLKGGGGSGGGGSGGGGSVQLQQSGAELVKPGASVKLSCKASGYTFTNYFIYWVKQRPGQGLEWIGEINPRNGDTDFNEKFESRATLTVDKSSSTAYMQLSSLTSEDSAIYYCTRSPYGNNYGFTYWGQGTLVTVSA" assay_result=8.27
binder="Mutant D scFv, scFv(Y156H) (scFv, VL-linker-VH; histidine-tagged, from E. coli BL21; also called Mut D; not shown: histidine tag from the pADL-22c vector) scFv: DIQMIQSQKFMSTSVGDRVTVTCKASQNVGTNVAWYQQKPGQSPNALIYSASYRYSGVPDRFTGSGSGTDFTLTITNVQSEDLADYFCQQYNSYPLTFGTGTKLDLKGGGGSGGGGSGGGGSVQLQQSGAELVKPGASVKLSCKASGYTFTNYFIHWVKQRPGQGLEWIGEINPRNGDTDFNEKFESRATLTVDKSSSTAYMQLSSLTSEDSAIYYCTRSPYGNNYGFTYWGQGTLVTVSA" assay_result=8.42
binder="Mutant E scFv, scFv(Y156H, D180G, Q233P) (scFv, VL-linker-VH; histidine-tagged, from E. coli BL21; also called Mut E; not shown: histidine tag from the pADL-22c vector) scFv: DIQMIQSQKFMSTSVGDRVTVTCKASQNVGTNVAWYQQKPGQSPNALIYSASYRYSGVPDRFTGSGSGTDFTLTITNVQSEDLADYFCQQYNSYPLTFGTGTKLDLKGGGGSGGGGSGGGGSVQLQQSGAELVKPGASVKLSCKASGYTFTNYFIHWVKQRPGQGLEWIGEINPKNGDTGFNEKFESRATLTVDKSSSTAYMQLSSLTSEDSAIYYCTRSPYGNNYGFTYWGPGTLVTVSA" assay_result=9.56
